- Tested on: K562 cells
- Procedure Summary: Cell viability, Cell Titer Glo 2.0 assay, K562
- Condition Set: 72 hours
Where a name gives a salt, the structure may show the parent alone.
Quantity Name: Effect on Cell Viability, K562

# Compound, Tested On, Effect on Cell Viability, K562
data = [
    ("Cc1cn2nc(-c3ccc4cc(N5C[C@@H](C)N[C@@H](C)C5)cnc4n3)cc(C)c2n1", "K562 cells", "B (100-1000 nM)"),
    ("Cc1c(O)c(-c2cc(Cl)c3cc(N4CCC(N(C)C)C4)cnc3n2)cc2cn(C)nc12 (stereo not drawn)", "K562 cells", "B (100-1000 nM)"),
    ("Cn1cc2cc(-c3ccc4cc(NC5CCNCC5)cnc4n3)c(O)c(F)c2n1", "K562 cells", "B (100-1000 nM)"),
    ("Cn1cc2cc(-c3ccc4cc(N5CCC(NC(C)(C)C)C5)cnc4n3)c(O)cc2n1 (stereo not drawn) [Compound 134, hydrochloride]", "K562 cells", "B (100-1000 nM)"),
    ("Cc1c(O)c(-c2cc(-c3ccccn3)c3cc(N4C[C@@H](C)N[C@@H](C)C4)cnc3n2)cc2cn(C)nc12", "K562 cells", "C (1000-9999 nM)"),
]

For every item below, please supply its Effect on Cell Viability, K562.
1. CN[C@H]1CCN(c2cnc3nc(-c4cc(C)c5nc(C)cn5n4)cc(Cl)c3c2)C1
2. C[C@@H]1CN(c2cnc3nc(-c4cc(F)c5nn(C)cc5c4)cc(Cl)c3c2)CC2(CC2)N1
3. Cc1c(O)c(-c2cc(Cl)c3cc(N(C)[C@@H]4CCNC4)cnc3n2)cc2cn(C)nc12.Cl

[reply]
B (100-1000 nM)
C (1000-9999 nM)
B (100-1000 nM)

###

Field: IC50. Provide a value for each of the compounds that follow.
- Test system: MYB mRNA
- Procedure Summary: Splicing RT-qPCR assay, MYB canonical (CJ) and alternative (AJ) junction mRNA
- Format: cell-based, human
- Condition Set: Homo sapiens; canonical junction mRNA, RT-qPCR, A673 or K562 cells, 24 hours treatment; read-out: MYB CJ (IC50, decrease in CJ mRNA)
- Protocol: Compounds described herein were used to modulate RNA transcript abundance in cells. The expression of a target mRNA was measured by detecting the formation of an exon-exon junction in the canonical transcript (CJ). A compound mediated exon-inclusion event was detected by observing an increase in formation of a new junction with an alternative exon (AJ). Real-time qPCR assays were used to detect these splicing switches and interrogate the potency of various compounds towards different target genes. […]

Illustrative cases are given below, each with its answer.
# Compound, Tested On, Reported
measured = [
    ("Cc1c(O)c(-c2ccc3nc(N4CCC(N(C)C)CC4)cnc3n2)cc2cn(C)nc12 [Compound 198]", "MYB mRNA", "0.1 to 1 µM"),
    ("C[C@@H]1CN(c2cnc3nc(-c4cc(F)c5nn(C)cc5c4)cc(Cl)c3c2)C[C@H](C)N1 [Compound 215]", "MYB mRNA", "0.1 to 1 µM"),
    ("Cc1c(O)c(-c2ccc3cc(N4CCC(NCC5CC5)C4)cnc3n2)cc2cn(C)nc12 (stereo not shown) [Compound 105]", "MYB mRNA", "< 0.1 µM"),
    ("CN[C@@H]1CCN(c2cnc3nc(-c4cc(F)c5nc(C)cn5c4)ncc3c2)C1 [Compound 202]", "MYB mRNA", "< 0.1 µM"),
    ("C[C@H]1CN(c2cnc3nc(-c4cc5cn(C)nc5cc4O)cc(Cl)c3c2)C[C@H](C)N1C [Compound 404]", "MYB mRNA", "0.1 to 1 µM"),
]

For every item below, please supply its IC50.
1. C[C@H]1CN(c2cnc3nc(-c4cc(F)c5nn(C)cc5c4)cc(Cl)c3c2)CC2(CC2)N1 [Compound 396]
2. CN[C@H]1CCN(c2cnc3nc(-c4cc5cn(C)nc5c(C)c4O)nc(OC)c3c2)C1 [Compound 212]

[reply]
1. 0.1 to 1 µM
2. < 0.1 µM

###

- System: MYB mRNA
- Procedure Summary: Splicing RT-qPCR assay, MYB canonical (CJ) and alternative (AJ) junction mRNA
- Format: cell-based, human
- Condition Set: Homo sapiens; canonical junction mRNA, RT-qPCR, A673 or K562 cells, 24 hours treatment; read-out: MYB CJ (IC50, decrease in CJ mRNA)
pIC50: −log10 of the molar value.
Quantity Name: pIC50

# Compound, Reported
rows = [
    ("Cc1c(O)c(-c2cc(C3CC3)c3cc(N4C[C@H](C)N[C@@H](C)C4)cnc3n2)cc2cn(C)nc12 [Compound 377]", "> 7.00"),
    ("Cn1cc2cc(-c3ccc4cc(N5CC[C@@H](NCC6CC6)C5)cnc4n3)c(O)c(F)c2n1 [Compound 135]", "> 7.00"),
    ("CN[C@H]1CCN(c2cnc3nc(-c4cc5cn(C)nc5c(C)c4O)ncc3c2)C1 [Compound 120]", "> 7.00"),
]

For every item below, please supply its pIC50.
1. Cc1c(O)c(-c2cc(Cl)c3cc(N4C[C@@H](C)NC5(CC5)C4)cnc3n2)cc2cn(C)nc12 [Compound 399]
2. C[C@@H]1CN(c2cnc3nc(-c4cc5cn(C)nc5cc4O)ccc3c2Cl)C[C@H](C)N1 [Compound 492]
3. Cc1cn2nc(-c3ccc4cc(N5C[C@@H](C)N[C@@H](C)C5)cnc4n3)cc(C)c2n1 [Compound 330]
4. Cc1cn2cc(-c3cc(Cl)c4cc(N5C[C@H](C)N[C@@H](C)C5)cnc4n3)cc(F)c2n1 [Compound 298]
5. Cc1c(O)c(-c2ccc3cc(N4CCC(NCC5CC5)C4)cnc3n2)cc2cn(C)nc12 (stereo in doubt) [Compound 119]
6. Cc1cc(-c2cc3cn(C)nc3c(C)c2O)nc2ncc(N3CCNCC3)cc12 [Compound 151]

[reply]
1. > 7.00
2. > 7.00
3. 6.00 to 7.00
4. > 7.00
5. > 7.00
6. > 7.00

###

- System: HTT mRNA
- Procedure Summary: Splicing RT-qPCR assay, HTT canonical (CJ) and alternative (AJ) junction mRNA
- Format: cell-based, human
- Condition Set: Homo sapiens, canonical junction mRNA, qPCR panel; read-out: HTT CJ (decrease in CJ mRNA levels, IC50)
Where a name gives a salt, the structure may show the parent alone.
Quantity Name: IC50

Illustrative cases are given below, each with its answer.
# Compound, IC50
measured = [
    ("C[C@@H]1CN(c2cnc3nc(-c4cc5cn(C)nc5cc4O)cc(Cl)c3c2)CC2(CC2)N1", "1 to 10 µM"),
    ("Cc1c(O)c(-c2cc(C3CC3)c3cc(N4C[C@H](C)N[C@@H](C)C4)cnc3n2)cc2cn(C)nc12", "0.1 to 1 µM"),
    ("C[C@H]1CN(c2cnc3nc(-c4cc(F)c5nn(C)cc5c4)ccc3c2Cl)CCN1", "> 10 µM"),
    ("CN[C@@H]1CCN(c2cnc3nc(-c4cc5cn(C)nc5c(C)c4O)ncc3c2)C1 [Compound 107, hydrochloride]", "< 0.1 µM"),
    ("Cc1c(O)c(-c2ccc3c(Cl)c(N4CCNCC4)cnc3n2)cc2cn(C)nc12", "1 to 10 µM"),
    ("C[C@@H]1CN(c2cnc3nc(-c4ccc5nn(C)cc5c4)cc(Cl)c3c2)C[C@H](C)N1", "> 10 µM"),
    ("C[C@@H]1CN(c2cnc3nc(-c4cc5cn(C)nc5cc4O)cc(Cl)c3c2)C[C@H](C)N1", "1 to 10 µM"),
    ("CN(C)C1CCN(c2ccc3nc(-c4cc5cn(C)nc5c(F)c4O)cnc3c2)CC1", "0.1 to 1 µM"),
]

For every item below, please supply its IC50.
1. Cc1cn2cc(-c3cc(Cl)c4cc(N5C[C@@H](C)N[C@@H](C)C5)cnc4n3)cc(F)c2n1
2. Cc1cn2cc(-c3cc(Cl)c4cc(N5C[C@H](C)NC6(CC6)C5)cnc4n3)cc(F)c2n1
3. CNC1CCN(c2cnc3nc(-c4cc5cn(C)nc5c(C)c4O)nc(OC)c3c2)C1 (stereo not drawn)
4. C[C@H]1CN(c2cnc3nc(-c4cc(F)c5nn(C)cc5c4)ccc3c2)CCN1
5. Cc1nc2c(C)c(O)c(-c3cnc4cc(N5CCC(NC6CC6)C5)ccc4n3)cc2o1 (stereo not drawn)

[reply]
1. 1 to 10 µM
2. 1 to 10 µM
3. 0.1 to 1 µM
4. 1 to 10 µM
5. < 0.1 µM

For every item below, please supply its IC50.
1. C[C@@H]1CN(c2cnc3nc(-c4cc5cn(C)nc5cc4O)cc(C4CC4)c3c2)C[C@H](C)N1 [Compound 364, hydrochloride]
2. Cc1c(O)c(-c2cc(Cl)c3cc(N4CCC(N(C)C)C4)cnc3n2)cc2cn(C)nc12 (stereo not drawn)

[reply]
1. < 0.1 µM
2. 0.1 to 1 µM
